Measured koff of individual entries
# TARGET_SYSTEM: T1, human GPC3-his tag protein (human, UniProt P51654 25-559, limits assumed)
# T1 construct: recombinant soluble antigen used as analyte in all Biacore runs; also called recombinant GPC3 protein; rhGPC3-His; not shown: His tag
# ASSAY_REMARKS: SPR Biacore 8K, mAb captured on CM5, single dose GPC3-his
// note: answer is a bare numeric in s⁻¹

Example entries begin here.
[
  {
    "BINDER": "171F9C5 mouse monoclonal antibody (antibody, V domains shown, mouse hybridoma antibody) VH: QVQLQQSGAELVRPGASVTLSCKASGYTFTDYEIHWVKQTPVHGLEWIGAIDPETDNTAYSQKFKGKAILTADKSSSTAYMELRSLTSEDSAVYYCTRYYSYAYWGQGTLVTVSA VL: DVVMTQTPLSLPVSLGDQASISCRSSQSPVHRNGNTYLHWYLQKPGQSPKLLIFKVSNRFSGVPDRFSGSGSGTDFTLKISRVAAEDLGVYFCSQTTHVPYTFGGGTKLEIK",
    "VALUE_OBSERVED": 0.000199
  },
  {
    "BINDER": "18C1D9 mouse monoclonal antibody (antibody, V domains shown, mouse hybridoma antibody) VH: QVQLQQSGAELVRPGASVTLSCKASGYTFSDYEMHWVKQTPVHGLEWIGAIDPETGGTAYNQKFKGKATLTADKSSSTAYMELRSLTSEDSAVYYCTRYYSYAYWGQGTLVTVSA VL: DVVMTQSPLSLPVSLGDQASISCRSRQSLVHSNGNTYLQWYLQKPGQSPKLLIYKVSNRFSGVPDRFSGSGSGTDFTLKISRVEAEDLGVYFCFQSIHVPYTFGGGTKLEKK",
    "VALUE_OBSERVED": 0.000412
  },
  {
    "BINDER": "172B4E9 mouse monoclonal antibody (antibody, V domains shown, mouse hybridoma antibody) VH: QVQLQQSGAELVRPGASVTLSCKASGYTFTDYEIHWVKQTPVHGLEWIGAIDPATGDTAYTQKFKGKAILTADTSSNTVYMELRGLTSEDSAVHFCTRFYSYAYWGQGTLVTVSA VL: DVVMTQTPLSLPVSLGDQASISCRSSQSLVHTNGHTYLQWYLQKSGQSPRLLIFKVSNRFSGVPDRFSGSGSGTDFKLKISRVEAEDLGVYFCSQSTHVPYTFGGGTKLEIK",
    "VALUE_OBSERVED": "9.01e-05"
  }
]

Here is another binder to look at.
What value of measured koff is listed for 52H5D3B8 mouse monoclonal antibody (antibody, V domains shown, mouse hybridoma antibody) VH: QVQLQQSGAELVRPGASVKLSCKALGYTFTDYEMHWVKQTPVHGLEWIGAIHPGSGGTAYNQKFKGKATLTADKFSSTGYMELSSLTSEDSAVYYCTRFYSYAYWGQGTLVTVSA VL: DVVMTQTPLSLPVSLGDQASISCRSSQSLVHSNGNTYLQWYLQKPGQSPKLLIYKVSNRFSGVPDRFSGSGSGTDFILKISRVEAEDLGVYFCSQSIHVPYTFGGGTKLEIK ?
0.000317
